Organism: Homo sapiens
Assay: Selectivity index, ratio of IC50 for human recombinant CYP1A1 to IC50 for human recombinant CYP1B1 using 7-ethoxyresorufin as substrate
Strictly below 20 in Ratio IC50: Condition met. Otherwise: Condition not met.

>>> assigned_category("O=C(Nc1ccc(Cl)cc1)c1nc(-c2ccccc2)cs1")
"Condition not met"

Query string: Strictly below 20 in Ratio IC50? COc1cc(NC(=O)c2nc(-c3ccccc3F)cs2)cc(OC)c1
Result string: Condition not met

Query string: Then COc1cc(NC(=O)c2nc(-c3cccc(F)c3)cs2)cc(OC)c1 ?
Result string: Condition not met

Query string: Again, but for CC(=O)Nc1ccc(-c2csc(C(=O)Nc3cc(Cl)cc(Cl)c3)n2)cc1
Result string: Condition met

Query string: And Cc1ccc(NC(=O)c2nc(-c3ccccc3)cs2)cc1 ?
Result string: Condition not met

Query string: Now the same for O=C(Nc1cc(Cl)cc(Cl)c1)c1nc(-c2ccc(O)cc2)cs1
Result string: Condition met

Query string: // next record O=C(Nc1ccc(C(F)(F)F)cc1)c1nc(-c2cccc(Cl)c2)cs1
Result string: Condition not met

Query string: Cool, now O=C(Nc1cc(Cl)cc(Cl)c1)c1nc(-c2ccc([N+](=O)[O-])cc2)cs1
Result string: Condition not met

Query string: Please give the result for Nc1ccc(-c2csc(C(=O)Nc3cc(Cl)cc(Cl)c3)n2)cc1 too.
Result string: Condition met

Query string: Item: N#Cc1ccc(-c2csc(C(=O)Nc3cc(Cl)cc(Cl)c3)n2)cn1
Result string: Condition met
